This collection of values is drawn from patent US12384795B2.

- experimental.target: BTK tyrosine kinase protein (Homo sapiens, UniProt Q06187)
- Sequence (Q06187 whole entry): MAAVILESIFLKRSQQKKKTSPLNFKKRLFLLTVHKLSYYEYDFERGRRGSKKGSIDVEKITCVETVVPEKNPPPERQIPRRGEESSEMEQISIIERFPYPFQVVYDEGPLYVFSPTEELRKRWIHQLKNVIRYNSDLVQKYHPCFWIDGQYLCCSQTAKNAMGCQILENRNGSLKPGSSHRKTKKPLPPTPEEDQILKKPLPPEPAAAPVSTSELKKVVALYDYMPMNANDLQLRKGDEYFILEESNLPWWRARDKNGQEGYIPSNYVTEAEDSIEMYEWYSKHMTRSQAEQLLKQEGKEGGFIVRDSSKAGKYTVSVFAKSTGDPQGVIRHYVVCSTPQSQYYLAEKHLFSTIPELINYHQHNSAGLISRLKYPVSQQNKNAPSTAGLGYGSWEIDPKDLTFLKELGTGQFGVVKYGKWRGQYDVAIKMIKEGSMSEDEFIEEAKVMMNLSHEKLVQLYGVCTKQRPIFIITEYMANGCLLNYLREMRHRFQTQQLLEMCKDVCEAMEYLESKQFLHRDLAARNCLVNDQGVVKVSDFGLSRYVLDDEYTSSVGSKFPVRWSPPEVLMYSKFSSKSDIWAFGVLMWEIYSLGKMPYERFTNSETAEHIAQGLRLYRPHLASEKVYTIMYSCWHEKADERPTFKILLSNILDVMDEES
endpoint.label: IC50 (pM)
Provide the reading as a plain figure in pM.

Log: BTK tyrosine kinase protein (Homo sapiens, UniProt Q06187), compound `C=C1c2c(-c3ccc(C(=O)Nc4ccccn4)cc3)c3c(N)ncnc3n2C[C@H]1NC(=O)C#CC` , IC50 = 500

###

- assay.method.text: in vivo
- cond: male, Sprague-Dawley (SD), rat, in vivo, po, 3 mg/kg
endpoint.label: Cmax (ng/mL)
Provide the reading as a plain figure in ng/mL.

Lab note: `C=C1c2c(-c3ccc(C(=O)Nc4ccccn4)cc3)c3c(N)ncnc3n2C[C@H]1NC(=O)C#CC` gave Cmax of 2700

###

- assay.method.text: Evaluation of metabolic properties (pharmacokinetics) in rats
- cond: male, Sprague-Dawley (SD), rat, plasma, po, 3 mg/kg
endpoint.label: AUC (ng·h/mL)
Provide the reading as a plain figure in ng·h/mL.

Lab note: C=CC(=O)N1CCC[C@@H](n2nc(-c3ccc(Oc4ccccc4)cc3)c3c(N)ncnc32)C1 [Ibrutinib, reference compound] gave AUC of 57

###

- System: Human diffuse large B lymphoma cell TMD8
- assay.method.text: Inhibition of proliferation of TMD8 cells in vitro (MTT, 72 h)
- Assay type: cell-based
pIC50: −log10 of the molar value.
Outcome: 1 for pIC50 of at least 8; 0 for anything lower.

Solved entries:
* CC#CC(=O)N1CCC[C@H]1c1nc(-c2ccc(C(=O)Nc3ccccn3)cc2)c2c(N)nccn12 [Acalabrutinib] | 0
* CC#CC(=O)N[C@@H]1CCc2c(-c3ccc(Oc4ccccc4)cc3)c3c(N)ncnc3n2C1 [Compound S10] | 0

Determine whether measured pIC50 meets or exceeds 8 for C=CC(=O)NC1Cn2c(c(-c3ccc(C(=O)Nc4ccccn4)cc3)c3c(N)ncnc32)C1=C (centres unmarked) [Compound S20s]
1

Determine whether measured pIC50 meets or exceeds 8 for C=CC(=O)N1CCC[C@@H](n2nc(-c3ccc(Oc4ccccc4)cc3)c3c(N)ncnc32)C1 [Ibrutinib, reference compound]
1

Determine whether measured pIC50 meets or exceeds 8 for C=C1c2c(-c3ccc(C(=O)Nc4ccccn4)cc3)c3c(N)ncnc3n2C[C@H]1NC(=O)C#CC [Compound S17016]
1

###

- assay.method.text: in vivo
- cond: male, Sprague-Dawley (SD), rat, in vivo, po, 3 mg/kg
endpoint.label: AUC (ng·h/mL)
Provide the reading as a plain figure in ng·h/mL.

Lab note: `C=C1c2c(-c3ccc(C(=O)Nc4ccccn4)cc3)c3c(N)ncnc3n2C[C@H]1NC(=O)C#CC` gave AUC of 3860

###

- assay.method.text: in vivo
- cond: male, Sprague-Dawley (SD), rat, in vivo, po, 3 mg/kg
endpoint.label: Tmax (min)
Provide the reading as a plain figure in min.

Lab note: `C=C1c2c(-c3ccc(C(=O)Nc4ccccn4)cc3)c3c(N)ncnc3n2C[C@H]1NC(=O)C#CC` gave Tmax of 15

###

- assay.method.text: Evaluation of metabolic properties (pharmacokinetics) in rats
- cond: male, Sprague-Dawley (SD), rat, plasma, oral, 3 mg/kg
endpoint.label: bioavailability (%)
Provide the reading as a plain figure in %.

Lab note: C=CC(=O)N1CCC[C@@H](n2nc(-c3ccc(Oc4ccccc4)cc3)c3c(N)ncnc32)C1 [Ibrutinib, reference compound] gave bioavailability of 4
